The origin of these recorded values is patent US20150086555A1.

molecular target: recombinant soluble homotrimeric HA, A/South Carolina/1/18 H1N1 (Influenza A virus A/South Carolina/1/18 (H1N1)); assay: microarray, transfection SN IgG, trimeric HA; details: remark: other sources report otherwise
Measurement name: Trimeric HA Binding: RLU (RLU)
One number for each entry, in RLU.

Query: Fill in: Trimeric HA Binding: RLU of TCN-554 (5277_M05) (antibody, V domains shown) VH: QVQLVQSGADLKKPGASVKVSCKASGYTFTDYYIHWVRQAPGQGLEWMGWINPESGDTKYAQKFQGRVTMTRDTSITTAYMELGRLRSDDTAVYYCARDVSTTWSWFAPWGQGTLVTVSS VL: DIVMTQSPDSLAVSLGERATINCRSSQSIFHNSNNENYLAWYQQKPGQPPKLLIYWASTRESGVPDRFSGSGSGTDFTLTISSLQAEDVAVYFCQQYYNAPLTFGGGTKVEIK is ___
Result: 1260
